Form field: Herbicidal action against [%] LOLRI (one value per entry).
system: LOLRI: Lolium rigidum; experiment: Post-emergence herbicidal action; format: in vivo; details: Table C2, post-emergence, dosage 320 (0.32 kg of active substance per hectare), rated visually after about 3 weeks
Your answer should be a plain number; it is taken to be in %.

Check out these entries, answers already filled in.
Compound: O=C(OCC(F)(F)F)C1CCC(NC(=O)C2(C(F)(F)F)CC(c3cccc(F)c3)=NO2)C1 (mixture of isomers)
Herbicidal action against [%] LOLRI [%]: 100
//
Compound: CC(C)OC(=O)[C@@H]1CC[C@H](NC(=O)[C@@]2(C(F)(F)F)CC(c3cc(F)cc(F)c3)=NO2)C1
Herbicidal action against [%] LOLRI [%]: 100

The record that follows has no Herbicidal action against [%] LOLRI shown yet.
## Input // lookup Herbicidal action against [%] LOLRI for O=C(OCCCl)[C@@H]1CC[C@H](NC(=O)[C@@]2(C(F)(F)F)CC(c3cc(F)cc(F)c3)=NO2)C1
## Output 80
